// data source = patent US20250313635A1

target: T1, human αvβ1 integrin on CHOK1 stable cells (human, UniProt P06756 31-1048; P05556 21-798); assay: cell-based ELISA (CELISA), CHOK1 cells expressing the integrin
T1 construct: whole, on cells; Stably expressed on CHOK1 cells; also called hαvβ1; CHOK1-human αvβ1
endpoint_name: EC50 (nM)
Please respond with the number in nM and leave the unit unwritten.

Qu. What value of EC50 has been reported for the following binder? Ab-32 (antibody, V domains shown) VH: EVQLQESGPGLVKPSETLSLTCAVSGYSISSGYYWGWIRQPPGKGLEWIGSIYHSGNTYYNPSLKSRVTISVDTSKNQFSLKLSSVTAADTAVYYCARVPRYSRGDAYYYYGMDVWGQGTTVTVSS VL: EIVLTQSPGTLSLSPGERATLSCRASQSVRSSYLAWYQQKPGQAPRLLIYGASSRATGIPDRFSGSGSGTDFTLTISRLEPEDFAVYYCQQAGLVFTFGGGTKVEIK
Ans. 0.335
